Molecular target: human PCSK9 / human LDLR EGFa domain interaction (Homo sapiens (Human))
Sequence (Q8NBP7 153-692): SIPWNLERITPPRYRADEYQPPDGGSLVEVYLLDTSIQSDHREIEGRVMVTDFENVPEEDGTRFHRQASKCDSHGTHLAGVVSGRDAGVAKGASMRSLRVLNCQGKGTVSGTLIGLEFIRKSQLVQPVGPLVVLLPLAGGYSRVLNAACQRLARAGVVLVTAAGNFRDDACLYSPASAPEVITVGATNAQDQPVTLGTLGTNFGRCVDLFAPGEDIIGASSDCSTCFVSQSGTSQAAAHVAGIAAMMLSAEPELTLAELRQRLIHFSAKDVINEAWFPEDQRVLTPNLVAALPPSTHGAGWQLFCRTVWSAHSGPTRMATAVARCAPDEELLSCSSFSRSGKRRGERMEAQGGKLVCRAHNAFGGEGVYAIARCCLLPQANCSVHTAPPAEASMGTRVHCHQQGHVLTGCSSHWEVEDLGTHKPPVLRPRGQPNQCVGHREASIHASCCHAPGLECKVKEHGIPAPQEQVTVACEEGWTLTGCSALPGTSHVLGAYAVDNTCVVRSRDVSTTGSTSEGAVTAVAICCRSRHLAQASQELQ
Sequence (Q8NBP7 31-152 partner): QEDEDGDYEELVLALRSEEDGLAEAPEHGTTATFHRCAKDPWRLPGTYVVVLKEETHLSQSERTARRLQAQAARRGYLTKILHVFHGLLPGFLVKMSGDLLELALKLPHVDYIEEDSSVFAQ
Test: TR-FRET assay of inhibition of the PCSK9-LDLR protein-protein interaction
Type: binding
Details: TR-FRET, 20 nM human PCSK9, 20 nM human LDLR EGFa domain, 2 hours room temperature; read-out: IC50
pIC50: −log10 of the molar value. Starred links: 1 amine or outer side, 2 acyl side, 3 side chain; linkers in the order of their positions; H or OH if unused. Positions of bridges follow the written chain, without caps; N, C: chain ends. Non-standard residues stand in square brackets, D forms with d. Residues, ends and D or L forms follow the SMILES beside them. Phe(3-CH2NH2) = O=C([C@H](Cc1cccc(CN[*:3])c1)N[*:1])[*:2]; Trp(5-F) = N[C@@H](Cc1c[nH]c2ccc(F)cc12)C(=O)O; X4 = O=C(CCSCc1cccc(CSCCN[*:1])c1)[*:2]; X27 = O=C([C@@H](N[*:1])C1(O)CC1)[*:2]; mXylylene = c1cc(C[*:1])cc(C[*:2])c1; d(aThr) = C[C@@H](O)[C@@H](N)C(=O)O; NMeV = CN[C@H](C(=O)O)C(C)C; αMeP = C[C@@]1(C(=O)O)CCCN1; Mpa = O=C(O)CCS
Assign pIC50 to each entry below.

# input Return pIC50 measured with human PCSK9 / human LDLR EGFa domain interaction (Homo sapiens (Human)) given this molecule: CC(C)[C@H]1C(=O)N[C@H](C(N)=O)CSCc2cccc(c2)CSCCC(=O)N[C@@H](CCCCN)C(=O)NCC(=O)N[C@@H](Cc2c[nH]c3ccc(F)cc23)C(=O)N[C@@H](Cc2c[nH]c3ccc(F)cc23)C(=O)N[C@@H](CC(=O)O)C(=O)N[C@@H](Cc2cnc[nH]2)C(=O)N[C@@H](Cc2ccc(O)cc2)C(=O)N1C [Compound 220] ([Mpa]KG[Trp(5-F)][Trp(5-F)]DHY[NMeV]C-NH2; linker 1-10 via mXylylene)
# output 4.30 to 4.68

# input Return pIC50 measured with human PCSK9 / human LDLR EGFa domain interaction (Homo sapiens (Human)) given this molecule: C[C@@]12CCCN1C(=O)[C@H](Cc1ccc(O)cc1)NC(=O)[C@H](Cc1cnc[nH]1)NC(=O)[C@H](CC(=O)O)NC(=O)[C@H](Cc1c[nH]c3ccc(F)cc13)NC(=O)[C@H](Cc1c[nH]c3ccc(F)cc13)NC(=O)CNC(=O)[C@H](C1(O)CC1)NC(=O)CCSCc1cccc(c1)CSC[C@@H](C(N)=O)NC2=O [Compound 372] ([Mpa][X27]G[Trp(5-F)][Trp(5-F)]DHY[αMeP]C-NH2; linker 1-10 via mXylylene)
# output 6.00 to 7.00

# input Return pIC50 measured with human PCSK9 / human LDLR EGFa domain interaction (Homo sapiens (Human)) given this molecule: COc1ccc(C[C@@H]2NC(=O)[C@@H]([C@@H](C)O)NC(=O)[C@H](CC(=O)O)NC(=O)[C@H](Cc3c[nH]c4ccc(F)cc34)NC(=O)[C@H](Cc3cccc(CN)c3)NC(=O)[C@@H](C)NC(=O)[C@H](C)NC(=O)CCSCc3cccc(c3)CSCCNC(=O)[C@]3(C)CCCN3C2=O)cc1 [Compound 384] (cyclo(A[dA][Phe(3-CH2NH2)][Trp(5-F)]D[d(aThr)]Y(Me)[αMeP][X4]))
# output 4.30 to 4.68

FYI, the data here is from patent US11530244B2.
